Where do these numbers come from? They come from patent US10239825B2.

Assign RRR Time to each entry below.
Tested on: adult female Sprague-Dawley rats
Test: rat infusion study: loss/recovery of righting reflex and walk (anaesthetic effect)
Type: in vivo
Conditions: time from end of infusion to recovery of righting reflex
Give bare numbers, in s.

The following compounds have reported results that may help.
CC(C)OC(=O)CCN[C@]1(c2ccccc2Cl)CCCCC1=O.Cl [(S)-C2iPr]    15
CCCOC(=O)CCCNC1(c2ccccc2Cl)CCCCC1=O.Cl (racemic)    10

Each of the following entries comes with a recorded value; kindly state RRR Time for each.
1. CC(C)OC(=O)CCN[C@@]1(c2ccccc2Cl)CCCCC1=O.Cl [(R)-C2iPr]
2. COC(=O)CCCCN(C)C1(c2ccccc2Cl)CCCCC1=O (centres unmarked)
3. CC(C)OC(=O)CCCCNC1(c2ccccc2Cl)CCCCC1=O.Cl (racemic)

1: 0; 2: 0; 3: 180
